Recorded measurements of relative integration efficiency (log2), one per entry
# System: VchCAST RNA-guided transposition machinery (E. coli BL21(DE3) host, lacZ target)
# ASSAY_DETAILS: relative integration efficiency (T-RL orientation) vs wild-type transposon end (log2 (normalized fold change)); transposon end mutated: right end (5 bp flank + 75 bp right end); higher = more efficient transposition
The reply should be a number, written without any unit.

INSERT INTO results (sequence_text, subject_of_test, readout_value) VALUES
  ('ACATTTGTTGATACAACCATAAAATCATAATTACACCCATCAATTGATAATTATCCCACCCAATTTAACTATAACGCTCTGATCATAGTCAGACCAACATTGCTACGACCCGTATTCGCACCGACAC', 'VchCAST RNA-guided transposition machinery (E. coli BL21(DE3) host, lacZ target)', -3.92),
  ('ACATTTGTTGATACAACCATAAAATGATAATTACTCTGATCATAGTCAGACACCCATAAATTGATAATTATCAGTGGGTATTTAACTATAACGCCAACATTGCTACGACCCGTATTCGCACCGACAC', 'VchCAST RNA-guided transposition machinery (E. coli BL21(DE3) host, lacZ target)', -1.71);

Entry "ACATTGTTTGATACAACCATAAAATGATAATTACACCCATAAATTGATAATTATCACACCCATAAATTGATATTGCCTCTGATCATAGTCAGACCAACATTGCTACGACCCGTATTCGCACCGACAC" has what relative integration efficiency (log2)?
-6.33

Entry "ACATTTGTTGATACACCCATAAATTGATAATTACACCCATAAATTGATATTGCTCACAACCATATATTGATATCTCCTCTGATCATAGTCAGACCAACATTGCTACGACCCGTATTCGCACCGACAC" has what relative integration efficiency (log2)?
-1.02

Entry "ACATTTGTTGATACAACCATAAAATGATAATTACACCCATTAATTGATAATAATGACACCGAATTTAACTATAACGCTCTGATCATAGTCAGACCAACATTGCTACGACCCGTATTCGCACCGACAC" has what relative integration efficiency (log2)?
-1.51

====

# Test system: VchCAST RNA-guided transposition machinery (E. coli BL21(DE3) host, lacZ target)
# ASSAY_DETAILS: relative integration efficiency (T-LR orientation) vs wild-type transposon end (log2 (normalized fold change)); transposon end mutated: right end (5 bp flank + 75 bp right end); higher = more efficient transposition
Recorded measurements of relative integration efficiency (log2), one per entry
The reply should be a number, written without any unit.

// below: answered sequences
INSERT INTO assay_data (sequence_text, subject_of_test, assay_metric, readout_value) VALUES
  ('ACATTTGTTGATACAACCATAAAACGATAATTACACCCATAAATTGATCATTATCACACCCAATTTAACTATAACGCTCTGATCATAGTCAGACCAACATTGCTACGACCCGTATTCGCACCGACAC', 'VchCAST RNA-guided transposition machinery (E. coli BL21(DE3) host, lacZ target)', 'relative integration efficiency (log2)', 1.86),
  ('ACATTTGTTGATACAACCATATATTGATATCTCCACCCATAAATTGATATTGCTCACAACCATAAGTTGATATTTTCTCTGATCATAGTCAGACCAACATTGCTACGACCCGTATTCGCACCGACAC', 'VchCAST RNA-guided transposition machinery (E. coli BL21(DE3) host, lacZ target)', 'relative integration efficiency (log2)', 0.281),
  ('ACATTTGTTGATACAACCATAAAATGGTAATTCCACCCATAAATTGATAATTATCACACCCAATTTAACTATAACGCTCTGATCATAGTCAGACCAACATTGCTACGACCCGTATTCGCACCGACAC', 'VchCAST RNA-guided transposition machinery (E. coli BL21(DE3) host, lacZ target)', 'relative integration efficiency (log2)', 2.06),
  ('ACATTTGTTGATACAACCATAAAATCATCATTACACCCATCAATTGATAATTATCCCACCCAATTTAACTATAACGCTCTGATCATAGTCAGACCAACATTGCTACGACCCGTATTCGCACCGACAC', 'VchCAST RNA-guided transposition machinery (E. coli BL21(DE3) host, lacZ target)', 'relative integration efficiency (log2)', -1.17),
  ('ACATTTGTTGATACAACCATAAAAAGATAATTACACCCATAAATTGATAATTGTGACACCGAATTTAACTATAACGCTCTGATCATAGTCAGACCAACATTGCTACGACCCGTATTCGCACCGACAC', 'VchCAST RNA-guided transposition machinery (E. coli BL21(DE3) host, lacZ target)', 'relative integration efficiency (log2)', 2.38);

Entry "ACATTTGTTGATACAACCATAAAATGATAATTACACCCATAAATTGATAATTATCACACCCATAAATTGATATTGCCTCTTTGTGAGCGGATAACAAGATCATAGTCAGACCAACATGCACCGACAC" has what relative integration efficiency (log2)?
-0.434

Entry "ACATTTGTTCATACAACCATAAAATGATAATTACACCCATAAATTCATAATTATCACACCCAATTTAACTATAACGCTCTGATCATAGTCAGACCAACATTGCTACGACCCGTATTCGCACCGACAC" has what relative integration efficiency (log2)?
-0.697

Entry "ACATTTGTTGATACAACCATAAAATCATCATTACCCCCATCAATTGATAATTATCCCACCCAATTTAACTATAACGCTCTGATCATAGTCAGACCAACATTGCTACGACCCGTATTCGCACCGACAC" has what relative integration efficiency (log2)?
-1.26

Entry "ACATTTGTTGATATCAACCATAAAATGATAATTACACCCATAAATTGATAATTATCACACCCATAAATTGATATTGCCTCTGATCATAGTCAGACCAACATTGCTACGACCCGTATTCGCACCGACA" has what relative integration efficiency (log2)?
-1.38

Entry "ACATTTGTTCATACAACCCTAAAATGATAATTACACCCATAAATTCATCATTATCACCCCCAATTTAACTATAACGCTCTGATCATAGTCAGACCAACATTGCTACGACCCGTATTCGCACCGACAC" has what relative integration efficiency (log2)?
-3.65
